Biological target: T1, human CLDN6, endogenously expressed on cancer cell lines (human, UniProt P56747 1-220)
T1 construct: also called Endogenous CLDN6+; CLDN6 on ARK2, OVCA429, UMUC4 cells
T1 sequence: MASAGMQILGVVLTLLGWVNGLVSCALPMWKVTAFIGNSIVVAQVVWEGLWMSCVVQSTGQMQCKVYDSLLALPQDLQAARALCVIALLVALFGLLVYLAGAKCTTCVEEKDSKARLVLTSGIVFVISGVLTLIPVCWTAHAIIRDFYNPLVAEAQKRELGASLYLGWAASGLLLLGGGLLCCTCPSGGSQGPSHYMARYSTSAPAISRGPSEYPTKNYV
Assay: flow cytometry on UMUC4 cells (Positive Cell Line), anti-human IgG Fc secondary antibody
READOUT KIND: flow cytometry signal at 1µg Ab/Sample

Solved cases (5 shown):
Request: I'd like to know its flow cytometry signal at 1µg Ab/Sample. The binder in question is AB3-7 conjugated to MC-VC-PAB-MMAE (D4 technology) (antibody, V domains shown, MC-VC-PAB-MMAE conjugated to the antibody, substantially 4 drugs per antibody (D4); sites not stated, Antibody-drug conjugate of humanized AB3-7; also called CLDN6 ADC; ADC-23 (D4 technology)) VH: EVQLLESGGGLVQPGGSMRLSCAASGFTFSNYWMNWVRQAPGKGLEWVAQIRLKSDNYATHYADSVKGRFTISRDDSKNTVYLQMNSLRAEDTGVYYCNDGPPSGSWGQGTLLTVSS VL: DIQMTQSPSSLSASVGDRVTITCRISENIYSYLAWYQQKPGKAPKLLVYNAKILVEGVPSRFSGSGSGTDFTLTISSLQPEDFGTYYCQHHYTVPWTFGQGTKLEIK
Response: 25900

Request: I'd like to know its flow cytometry signal at 1µg Ab/Sample. The binder in question is AB3-7 (antibody, V domains shown, Humanized; also called humanized AB3-7; AB23) VH: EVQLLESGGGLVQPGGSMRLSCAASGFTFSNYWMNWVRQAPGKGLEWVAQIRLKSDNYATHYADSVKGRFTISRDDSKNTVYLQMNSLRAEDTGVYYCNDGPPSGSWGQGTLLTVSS VL: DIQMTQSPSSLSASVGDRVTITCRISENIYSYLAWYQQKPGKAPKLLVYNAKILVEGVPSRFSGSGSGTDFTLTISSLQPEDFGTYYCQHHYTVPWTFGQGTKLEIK
Response: 27300

Request: I'd like to know its flow cytometry signal at 1µg Ab/Sample. The binder in question is AB3-7 conjugated to MC-GGFG-DXD (antibody, V domains shown, MC-GGFG-DXD conjugated to the antibody; sites not stated, Antibody-drug conjugate of humanized AB3-7; also called CLDN6 ADC) VH: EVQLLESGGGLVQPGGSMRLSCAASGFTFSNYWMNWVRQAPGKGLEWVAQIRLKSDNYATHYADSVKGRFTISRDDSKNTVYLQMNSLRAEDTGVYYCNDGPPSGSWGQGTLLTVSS VL: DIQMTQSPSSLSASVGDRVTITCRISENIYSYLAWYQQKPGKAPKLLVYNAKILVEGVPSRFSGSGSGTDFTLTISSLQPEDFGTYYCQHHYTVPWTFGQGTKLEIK
Response: 32800

Request: I'd like to know its flow cytometry signal at 1µg Ab/Sample. The binder in question is AB3-7 conjugated to MC-GGFG-MMAE (D4 technology) (antibody, V domains shown, MC-GGFG-MMAE conjugated to the antibody (D4); sites not stated, Antibody-drug conjugate of humanized AB3-7; also called CLDN6 ADC) VH: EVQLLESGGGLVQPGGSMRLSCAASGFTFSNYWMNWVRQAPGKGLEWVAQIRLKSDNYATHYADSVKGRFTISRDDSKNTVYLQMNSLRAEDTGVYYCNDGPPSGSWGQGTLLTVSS VL: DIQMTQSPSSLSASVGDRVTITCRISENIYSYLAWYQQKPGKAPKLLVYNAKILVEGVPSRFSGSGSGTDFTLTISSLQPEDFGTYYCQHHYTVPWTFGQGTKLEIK
Response: 31600

Request: I'd like to know its flow cytometry signal at 1µg Ab/Sample. The binder in question is AB3-7 conjugated to CL2A-SN38 (conventional) (antibody, V domains shown, CL2A-SN38 conjugated to the antibody, heterogeneous (conventional); sites not stated, Antibody-drug conjugate of humanized AB3-7; also called CLDN6 ADC) VH: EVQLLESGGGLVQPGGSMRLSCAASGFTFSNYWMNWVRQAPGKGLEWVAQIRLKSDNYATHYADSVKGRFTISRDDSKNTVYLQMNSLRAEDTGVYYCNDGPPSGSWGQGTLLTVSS VL: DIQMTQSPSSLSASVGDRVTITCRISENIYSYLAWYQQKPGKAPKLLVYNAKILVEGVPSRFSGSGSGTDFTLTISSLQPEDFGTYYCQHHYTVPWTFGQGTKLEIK
Response: 33800

Further cases:
Request: I'd like to know its flow cytometry signal at 1µg Ab/Sample. The binder in question is AB3-7 conjugated to MC-VC-PAB-DXD (antibody, V domains shown, MC-VC-PAB-DXD conjugated to the antibody; sites not stated, Antibody-drug conjugate of humanized AB3-7; also called CLDN6 ADC) VH: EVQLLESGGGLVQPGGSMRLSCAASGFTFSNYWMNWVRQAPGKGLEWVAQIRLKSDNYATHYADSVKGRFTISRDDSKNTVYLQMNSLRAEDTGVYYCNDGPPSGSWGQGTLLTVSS VL: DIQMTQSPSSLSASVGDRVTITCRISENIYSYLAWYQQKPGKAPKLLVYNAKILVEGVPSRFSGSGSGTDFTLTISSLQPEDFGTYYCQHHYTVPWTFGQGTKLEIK
Response: 32600

Request: I'd like to know its flow cytometry signal at 1µg Ab/Sample. The binder in question is AB3-7 conjugated to MC-VC-PAB-MMAE (conventional) (antibody, V domains shown, MC-VC-PAB-MMAE conjugated to the antibody, heterogeneous (conventional); sites not stated, Antibody-drug conjugate of humanized AB3-7 (WuXi Biologics); also called CLDN6 ADC; ADC-23 (conventional)) VH: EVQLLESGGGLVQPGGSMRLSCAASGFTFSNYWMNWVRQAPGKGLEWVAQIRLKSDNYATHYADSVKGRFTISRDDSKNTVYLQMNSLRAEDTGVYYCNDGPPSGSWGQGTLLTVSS VL: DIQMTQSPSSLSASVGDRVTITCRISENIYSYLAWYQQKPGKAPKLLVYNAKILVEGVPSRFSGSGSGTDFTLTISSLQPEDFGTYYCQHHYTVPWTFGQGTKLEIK
Response: 28800

Request: I'd like to know its flow cytometry signal at 1µg Ab/Sample. The binder in question is AB3-7 conjugated to CL2A-SN38 (D4 technology) (antibody, V domains shown, CL2A-SN38 conjugated to the antibody (D4); sites not stated, Antibody-drug conjugate of humanized AB3-7; also called CLDN6 ADC) VH: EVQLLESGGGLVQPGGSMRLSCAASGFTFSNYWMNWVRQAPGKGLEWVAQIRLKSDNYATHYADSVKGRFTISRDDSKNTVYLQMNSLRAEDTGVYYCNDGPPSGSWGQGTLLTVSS VL: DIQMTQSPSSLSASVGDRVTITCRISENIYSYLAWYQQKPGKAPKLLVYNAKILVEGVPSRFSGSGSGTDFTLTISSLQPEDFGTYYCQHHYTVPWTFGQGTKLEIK
Response: 34600
